target_entity: gB-1 (Human herpesvirus 1, UniProt P10211)
assay_text: Luminex competition: inhibition of binding of BMPC-23 human IgG to gB-1
Design: species or system HSV-1
test_settings: Table 3 summary
measured_property: Competition with BMPC-23

# input Could you share which Competition with BMPC-23 value was measured for HSV010-28: gB-1 specific mouse monoclonal IgG; IgH SEQ ID NO: 60, IgL SEQ ID NO: 62 (antibody, V domains shown, HSV010-28 heavy chain; HSV010-28 light chain) VH: QIQLVQSGPELKKPGETVKISCKASGYTFTTYGMSWVKQAPGKGLKWMGWINTYSGVSTYADDFKGRFAFSLETSASTAYLQINNLKNEDTATYFCAQVNYAMDYWGQGTSVTVSSA VL: DIVMTQSHKFLSTSVGDWVTITCKASQDVSTAVAWFQQKPGQSPKVLIYSASYRYTGVPDRFTGSGSGTDFTFTISSVQAEDLAVYYCQQHYSTPRTFGGGTKLEIKR ?
# output Weak

# input Item HSV010-20: gB-1 specific mouse monoclonal IgG; IgH SEQ ID NO: 64, IgL SEQ ID NO: 66 (antibody, V domains shown, HSV010-20 heavy chain; HSV010-20 light chain) VH: DVQLQESGPGMVRPSQSLSLTCTVTGYSITSGYDWHWIRHFPGNKLEWMGYISYSGLTNYNPSLRSRFSITHDTSKNHFFLKLNSVTTEDTATYYCARGPPWYFDVWGTGTTVTVSSA VL: DIVMTQSQKFMSTSVGGRVSITCKASQIVRATVAWYQQKPGQSPKPLIYLASNRHTGVPDRFTGSGSGTDFTLTISNVQSEDLADYFCLQYWNYPYTFGGGTKLEIKR has what recorded Competition with BMPC-23?
# output No

# input Param item = HSV010-6: gB-1 specific mouse monoclonal IgG; IgH SEQ ID NO: 44, IgL SEQ ID NO: 46 (antibody, V domains shown, HSV010-6 heavy chain; HSV010-6 light chain) VH: QVQLQQPGAELVKPGASVKLSCKASGYTFTNYWIHWVKQRPGQGLEWIGMIHPNIGITHYSERFKSKATLTVDKSSTTAYMQLSSLTSEDSAVYYCARGSDSGSAWFAYWGQGTLVTVSAA VL: DIQMTQSSSYLSVSLGGRVTITCKASDHINNWLAWYLQKPGNAPRLLMSGATSLETGVPSRFSGSGSGKDYTLSITSLQTEDVATYYCQQYWSTPLTFGAGTKLELKR ; retrieve measured Competition with BMPC-23.
# output Weak
